Condition Parameters: 298.15 K; 101 kPa; Liquid; Vibrating tube method
Reported Endpoint: mass density (kg/m3)
Give bare numbers, in kg/m3.

>  <Molecule>
CN(C)C=O [dimethylformamide]

>  <Reported Endpoint>
mass density

>  <Units Text>
kg/m3

>  <Observed Result>
943.974

$$$$

// batch mode: one mass density value per listed entry
1. CC#N [acetonitrile]
2. CC1COC(=O)O1 (centres undefined) [4-methyl-1,3-dioxolan-2-one]

result:
776.615
1199.49

query: Give reported mass density value for CO [methanol]
result: 786.58
